target: T1, human PCSK9 (proprotein convertase subtilisin kexin type 9) (human, UniProt Q8NBP7 31-692); assay: FRET, competitor ATI001125
T1 construct: Directly immobilized (SPR ProteOn), biotinylated (BLI), or in solution, depending on the assay; also called hPCSK9
Assay readout: IC50 (nM)
Quick reminder: number only, in nM, skip the unit.

2381D04 (designed binder, Anti-PCSK9 Adnectin, His6-tagged) MGVSDVPRDLEVVAATPTSLLISWEPFSRLPGGGEYYRITYGETGGNSPLQQFTVPGSKGTATISGLKPGVDYTITVYAVEFPYDHSGYYHRPISINYRTEIDKPSQHHHHHH; 0.5
2382G04 (designed binder, Anti-PCSK9 Adnectin, His6-tagged) MGVSDVPRDLEVVAATPTSLLISWDAPAGGGYGYYRITYGETGGNSPVQEFTVPSSKGTATISGLKPGVDYTITVYAVEFDFPGAGYYHRPISINYRTEIDKPSQHHHHHH; 0.5
2381F11 (designed binder, Anti-PCSK9 Adnectin, His6-tagged) MGVSDVPRDLEVVAATPTSLLISWDAPADGGYGYYRITYGETGGNSPVQEFTVPVSKSTATISGLKPGVDYTITVYAVEYTFPGAGYYHRPISINYRTEIDKPSQHHHHHH; 0.8
2382B10 (designed binder, Anti-PCSK9 Adnectin, His6-tagged) MGVSDVPRDLEVVAATPTSLLISWDAPADAYGYYRITYGETGGNSPVQEFTVPSSKGTATISGLKPGVDYTITVYAVEYDFPGSGYYHRPISINYRTEIDKPSQHHHHHH; 0.5
2382H03 (designed binder, Anti-PCSK9 Adnectin, His6-tagged) MGVSDVPRDLEVVAATPTSLLISWDAPAEGAYGYYRITYGETGGNSPVQEFTVPVSKGTATISGLKPGVDYTITVYAVEYPYPFAGYYHRPISINYRTEIDKPSQHHHHHH; 0.3

Moving on to another binder below.
Summary for this binder, 2381B04 (designed binder, Anti-PCSK9 Adnectin, His6-tagged) MGVSDVPRDLEVVAATPTSLLISWEPFSRLPGGGEYYRITYGETGGNSPLQQFTVPGSKGTATISGLKPGVDYTITVYAVEYPYEHSGYYHRPISINYRTEIDKPSQHHHHHH : IC50 is 0.5
